Each recorded value in this set is attributed to patent US11180770B2.

- Test system: HPPD polypeptides
- assay protocol: coupled HPPD activity assay: turnover and residual turnover in crude extracts
- Format: biochemical, Pseudomonas fluorescens
- study conditions: 100 μM Cmpd. 1; signal change with inhibitor divided by signal change without inhibitor
readout kind: Residual turnover [%] (%)

INSERT INTO measurements (molecule, result_value) VALUES
  ('40 (protein, mutant HPPD polypeptide) MADLYENPMGLMGFEFIEFASPTPGTLEPIFEIMGFTKVATHRSKNVHLYRQGEINLILNNEPNSIASYFAAEHGPSVCGMAFRVKDSQKAYNRALELGAQPIHIDTGPMELNLPAIKGIGGAPLYLIDRFGEGSSIYDIDFVYLEGVERNPVGAGLKVIDHLTHNVYRGRMVYWANFYEKLFNFREARYFDIKGEYTGLTSKAMSAPDGMIRIPLNEESSKGAGQIEEFLMQFNGEGIQHVAFLTDDLVKTWDALKKIGMRFMTAPGDEYYEMLEGRLPDHGEPVDQLQARGILLDGSSVEGDKRLLLQIFSETLMGPVFFEFIQRKGDDGFGPDSFKVLFESVERDQVRRGVLTAD', 54),
  ('38 (protein, mutant HPPD polypeptide) MADLYENPMGLMGFEFIEFASPTPGTLEPIFEIMGFTKVATHRSKNVHLYRQGEINLILNNEPNSIASYFAAEHGPSVCGMAFRVKDSQKAYNRALELGAQPIHIDTGPMELNLPAIKGIGGAPLYLIDRFGEGSSIYDIDFVYLEGVERNPVGAGLKVIDHLTHNVYRGRMVYWANFYEKLFNFREARYFDIKGEYTGLTSKAMSAPDGMIRIPLNEESSKGAGQIEEFLMQFNGEGIQHVAFLTDDLVKTWDALKKIGMRFMTAPADEYYEMLEGRLPDHGEPVDQLQARGILLDGSSVEGDKRLLLQIFSETLMGPVFFEFIQRKGDDGFGPHSFKVLFESVERDQVRRGVLTAD', 45);
